# key: entry, value: IC50
target-or-test-system: Phospho-EGFR (Tyr1068) in A431 cells (Homo sapiens, UniProt P00533)
Construct: endogenous in cells
Sequence (P00533 25-1210): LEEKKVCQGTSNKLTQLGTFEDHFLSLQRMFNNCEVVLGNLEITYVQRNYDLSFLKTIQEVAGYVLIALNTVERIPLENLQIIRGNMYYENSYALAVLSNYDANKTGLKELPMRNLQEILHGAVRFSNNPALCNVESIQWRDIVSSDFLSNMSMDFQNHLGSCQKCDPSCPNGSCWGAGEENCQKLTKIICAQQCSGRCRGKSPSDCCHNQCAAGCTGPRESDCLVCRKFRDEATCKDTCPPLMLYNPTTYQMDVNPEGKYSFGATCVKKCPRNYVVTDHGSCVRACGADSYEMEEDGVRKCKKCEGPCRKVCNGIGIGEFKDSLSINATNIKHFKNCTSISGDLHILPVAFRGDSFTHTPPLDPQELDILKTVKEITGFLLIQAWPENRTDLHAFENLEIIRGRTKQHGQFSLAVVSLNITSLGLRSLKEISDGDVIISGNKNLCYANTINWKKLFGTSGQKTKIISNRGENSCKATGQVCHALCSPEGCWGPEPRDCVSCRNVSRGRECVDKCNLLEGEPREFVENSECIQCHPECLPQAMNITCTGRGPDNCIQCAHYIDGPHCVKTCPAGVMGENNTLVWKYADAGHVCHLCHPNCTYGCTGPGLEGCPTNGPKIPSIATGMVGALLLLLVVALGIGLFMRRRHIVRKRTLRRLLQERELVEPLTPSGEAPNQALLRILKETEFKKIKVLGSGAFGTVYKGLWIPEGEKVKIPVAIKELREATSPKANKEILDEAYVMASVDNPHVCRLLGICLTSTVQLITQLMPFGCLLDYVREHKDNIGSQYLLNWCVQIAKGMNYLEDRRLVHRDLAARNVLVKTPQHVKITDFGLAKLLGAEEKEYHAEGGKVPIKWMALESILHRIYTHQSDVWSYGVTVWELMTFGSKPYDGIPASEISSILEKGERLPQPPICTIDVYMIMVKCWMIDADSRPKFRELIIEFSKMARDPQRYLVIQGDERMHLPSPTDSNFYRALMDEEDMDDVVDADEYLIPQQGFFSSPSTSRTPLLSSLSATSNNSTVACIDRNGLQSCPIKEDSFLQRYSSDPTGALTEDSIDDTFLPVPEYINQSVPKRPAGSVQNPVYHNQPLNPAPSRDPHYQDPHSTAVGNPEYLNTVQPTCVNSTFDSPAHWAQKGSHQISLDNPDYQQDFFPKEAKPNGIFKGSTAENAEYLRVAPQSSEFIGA
assay: HTRF pEGFR/total EGFR in A431 cells with EGF stimulation
assay-context: ratio pEGFR/total EGFR, compound 2.5 hours then 100 ng/ml EGF 30 mins

>  <molecule>
C#Cc1cc(=O)n(-c2ccccc2)c2nc(Nc3ccc(N4CCC(N5CC(CO)C5)CC4)cc3)ncc12 [Example 28]

>  <target-or-test-system>
Phospho-EGFR (Tyr1068) in A431 cells (Homo sapiens, UniProt P00533)

>  <IC50>
1 to 3 µM

$$$$
>  <molecule>
C#Cc1cc(=O)n(C)c2nc(Nc3cccc(N(C)CCN(C)C)c3)ncc12 [Example 52]

>  <target-or-test-system>
Phospho-EGFR (Tyr1068) in A431 cells (Homo sapiens, UniProt P00533)

>  <IC50>
> 3 µM

$$$$
>  <molecule>
C#Cc1cc(=O)n(-c2cccc(N)c2)c2nc(Nc3ccccc3OC)ncc12 [Example 55]

>  <target-or-test-system>
Phospho-EGFR (Tyr1068) in A431 cells (Homo sapiens, UniProt P00533)

>  <IC50>
> 3 µM

$$$$
>  <molecule>
C#Cc1cc(=O)n(C)c2nc(Nc3ccc(N4CCN(C)CC4)c(NC(=O)CC)c3)ncc12 [Example 51]

>  <target-or-test-system>
Phospho-EGFR (Tyr1068) in A431 cells (Homo sapiens, UniProt P00533)

>  <IC50>
1 to 3 µM

$$$$
>  <molecule>
C#Cc1c(-c2ccccc2Cl)c(=O)n(C)c2nc(Nc3ccc(N4CCN(C)CC4)cc3)ncc12 [Example 128]

>  <target-or-test-system>
Phospho-EGFR (Tyr1068) in A431 cells (Homo sapiens, UniProt P00533)

>  <IC50>
< 0.5 µM

$$$$
>  <molecule>
C#Cc1c(-c2cc(F)ccc2Cl)c(=O)n(C)c2nc(Nc3ccc(N(C)CCN(C)C)cc3)ncc12 [Example 137]

>  <target-or-test-system>
Phospho-EGFR (Tyr1068) in A431 cells (Homo sapiens, UniProt P00533)

>  <IC50>
1 to 3 µM

$$$$
>  <molecule>
C#Cc1cc(=O)n(-c2ccccc2)c2nc(Nc3ccc(N4CCN(C)CC4)c(CC)c3)ncc12 [Example 24]

>  <target-or-test-system>
Phospho-EGFR (Tyr1068) in A431 cells (Homo sapiens, UniProt P00533)

>  <IC50>
> 3 µM

$$$$
>  <molecule>
C#Cc1cc(=O)n(C)c2nc(Nc3ccc(N4CCN(C)CC4)c(OC)c3)ncc12 [Example 208]

>  <target-or-test-system>
Phospho-EGFR (Tyr1068) in A431 cells (Homo sapiens, UniProt P00533)

>  <IC50>
1 to 3 µM

$$$$
>  <molecule>
C#Cc1cc(=O)n(C)c2nc(Nc3ccc(N4CCN(C)CC4)c(OCC4CCCC4)c3)ncc12 [Example 211]

>  <target-or-test-system>
Phospho-EGFR (Tyr1068) in A431 cells (Homo sapiens, UniProt P00533)

>  <IC50>
> 3 µM

$$$$
>  <molecule>
C#Cc1cc(=O)n(C)c2nc(Nc3ccc(N4CCN(C)CC4)c(NC(=O)CC4CCCC4)c3)ncc12 [Example 217]

>  <target-or-test-system>
Phospho-EGFR (Tyr1068) in A431 cells (Homo sapiens, UniProt P00533)

>  <IC50>
1 to 3 µM

$$$$
>  <molecule>
C#Cc1cc(=O)n2c3nc(ncc13)Nc1ccc(N3CCN(C)CC3)c(c1)S(=O)(=O)NCCC2 [Example 234]

>  <target-or-test-system>
Phospho-EGFR (Tyr1068) in A431 cells (Homo sapiens, UniProt P00533)

>  <IC50>
> 3 µM

$$$$
>  <molecule>
C#Cc1cc(=O)n(C2CCCC2)c2nc(Nc3ccc(N4CCN(C)CC4)cc3)ncc12 [Example 78]

>  <target-or-test-system>
Phospho-EGFR (Tyr1068) in A431 cells (Homo sapiens, UniProt P00533)

>  <IC50>
> 3 µM

$$$$
>  <molecule>
C#Cc1cc(=O)n2c3nc(ncc13)Nc1ccc(N3CCN(C(C)C)CC3)c(c1)NC(=O)CCC2 [Example 235]

>  <target-or-test-system>
Phospho-EGFR (Tyr1068) in A431 cells (Homo sapiens, UniProt P00533)

>  <IC50>
0.5 to 1 µM

$$$$
>  <molecule>
C#Cc1c(-c2c(Cl)cccc2Cl)c(=O)n(C)c2nc(Nc3cccc(CO)c3)ncc12 [Example 125]

>  <target-or-test-system>
Phospho-EGFR (Tyr1068) in A431 cells (Homo sapiens, UniProt P00533)

>  <IC50>
> 3 µM

$$$$
>  <molecule>
C#Cc1cc(=O)n(C2CCCC2)c2nc(Nc3cccc(N(C)[C@H]4CC[C@H](CS(C)(=O)=O)CC4)c3)ncc12 [Example 206]

>  <target-or-test-system>
Phospho-EGFR (Tyr1068) in A431 cells (Homo sapiens, UniProt P00533)

>  <IC50>
> 3 µM

$$$$
>  <molecule>
C#Cc1cc(=O)n(C)c2nc(Nc3ccc(N4CCN(C)CC4)c(OC4CCCC4)c3)ncc12 [Example 215]

>  <target-or-test-system>
Phospho-EGFR (Tyr1068) in A431 cells (Homo sapiens, UniProt P00533)

>  <IC50>
1 to 3 µM

$$$$
